SYSTEM UNDER TEST: T1, SARS-CoV-2 S1 (aa16-685) (Wuhan) (SARS-CoV-2 Wuhan, UniProt P0DTC2 16-685)
T1 construct: NRC; FLAG, 6xHis tags
EXPERIMENT NOTES: SPR, antigen on chip
Label yes when koff is at or above 0.001 s⁻¹; otherwise label no.

>>> assigned_label("NRCoV2-06 VHH (VHH) VHH: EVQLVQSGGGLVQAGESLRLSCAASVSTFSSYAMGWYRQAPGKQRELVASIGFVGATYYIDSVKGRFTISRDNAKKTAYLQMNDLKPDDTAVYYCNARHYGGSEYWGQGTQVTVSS")
"yes"
>>> assigned_label("NRCoV2-02 VHH (VHH) VHH: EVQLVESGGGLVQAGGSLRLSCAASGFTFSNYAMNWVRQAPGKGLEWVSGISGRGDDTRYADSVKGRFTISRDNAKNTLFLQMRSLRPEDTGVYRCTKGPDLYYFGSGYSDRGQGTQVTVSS")
"yes"
>>> assigned_label("NRCoV2-04 VHH (VHH) VHH: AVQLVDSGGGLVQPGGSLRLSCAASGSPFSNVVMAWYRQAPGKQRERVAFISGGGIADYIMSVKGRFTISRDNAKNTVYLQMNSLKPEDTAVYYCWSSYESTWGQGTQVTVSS")
"yes"
>>> assigned_label("NRCoV2-18 VHH (VHH) VHH: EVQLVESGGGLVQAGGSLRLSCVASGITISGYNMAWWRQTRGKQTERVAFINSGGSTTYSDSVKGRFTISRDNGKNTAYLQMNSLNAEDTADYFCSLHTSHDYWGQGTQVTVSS")
"no"
>>> assigned_label("NRCoV2-10 VHH (VHH) VHH: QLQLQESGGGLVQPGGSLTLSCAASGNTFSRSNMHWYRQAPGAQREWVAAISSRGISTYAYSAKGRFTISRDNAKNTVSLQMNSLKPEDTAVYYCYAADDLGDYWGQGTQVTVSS")
"no"
>>> assigned_label("NRCoV2-14 VHH (VHH) VHH: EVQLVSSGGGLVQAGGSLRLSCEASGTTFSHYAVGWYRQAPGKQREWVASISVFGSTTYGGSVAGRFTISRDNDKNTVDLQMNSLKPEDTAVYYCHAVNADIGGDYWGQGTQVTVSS")
"yes"

Inquiry: Kindly determine if koff recorded for NRCoV2-SR01 VHH (VHH) VHH: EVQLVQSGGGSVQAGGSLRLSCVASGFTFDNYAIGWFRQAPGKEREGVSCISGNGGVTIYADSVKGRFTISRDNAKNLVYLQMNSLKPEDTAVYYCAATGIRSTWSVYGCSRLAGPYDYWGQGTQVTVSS is above or exactly 0.001 s⁻¹.
Reply text: yes

Inquiry: Kindly determine if koff recorded for NRCoV2-07 VHH (VHH) VHH: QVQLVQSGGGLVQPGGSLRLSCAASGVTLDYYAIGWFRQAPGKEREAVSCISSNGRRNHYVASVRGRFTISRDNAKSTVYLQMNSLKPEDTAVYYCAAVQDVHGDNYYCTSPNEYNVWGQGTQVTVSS is above or exactly 0.001 s⁻¹.
Reply text: no
